Sourced from patent US20250145673A1

target: T1, complement component 3 (C3) (UniProt P01024 23-1663)
T1 construct: Purified bought protein; native C3 is a disulfide-linked two-chain protein made from one precursor
T1 sequence (P01024 23-1663 limits assumed): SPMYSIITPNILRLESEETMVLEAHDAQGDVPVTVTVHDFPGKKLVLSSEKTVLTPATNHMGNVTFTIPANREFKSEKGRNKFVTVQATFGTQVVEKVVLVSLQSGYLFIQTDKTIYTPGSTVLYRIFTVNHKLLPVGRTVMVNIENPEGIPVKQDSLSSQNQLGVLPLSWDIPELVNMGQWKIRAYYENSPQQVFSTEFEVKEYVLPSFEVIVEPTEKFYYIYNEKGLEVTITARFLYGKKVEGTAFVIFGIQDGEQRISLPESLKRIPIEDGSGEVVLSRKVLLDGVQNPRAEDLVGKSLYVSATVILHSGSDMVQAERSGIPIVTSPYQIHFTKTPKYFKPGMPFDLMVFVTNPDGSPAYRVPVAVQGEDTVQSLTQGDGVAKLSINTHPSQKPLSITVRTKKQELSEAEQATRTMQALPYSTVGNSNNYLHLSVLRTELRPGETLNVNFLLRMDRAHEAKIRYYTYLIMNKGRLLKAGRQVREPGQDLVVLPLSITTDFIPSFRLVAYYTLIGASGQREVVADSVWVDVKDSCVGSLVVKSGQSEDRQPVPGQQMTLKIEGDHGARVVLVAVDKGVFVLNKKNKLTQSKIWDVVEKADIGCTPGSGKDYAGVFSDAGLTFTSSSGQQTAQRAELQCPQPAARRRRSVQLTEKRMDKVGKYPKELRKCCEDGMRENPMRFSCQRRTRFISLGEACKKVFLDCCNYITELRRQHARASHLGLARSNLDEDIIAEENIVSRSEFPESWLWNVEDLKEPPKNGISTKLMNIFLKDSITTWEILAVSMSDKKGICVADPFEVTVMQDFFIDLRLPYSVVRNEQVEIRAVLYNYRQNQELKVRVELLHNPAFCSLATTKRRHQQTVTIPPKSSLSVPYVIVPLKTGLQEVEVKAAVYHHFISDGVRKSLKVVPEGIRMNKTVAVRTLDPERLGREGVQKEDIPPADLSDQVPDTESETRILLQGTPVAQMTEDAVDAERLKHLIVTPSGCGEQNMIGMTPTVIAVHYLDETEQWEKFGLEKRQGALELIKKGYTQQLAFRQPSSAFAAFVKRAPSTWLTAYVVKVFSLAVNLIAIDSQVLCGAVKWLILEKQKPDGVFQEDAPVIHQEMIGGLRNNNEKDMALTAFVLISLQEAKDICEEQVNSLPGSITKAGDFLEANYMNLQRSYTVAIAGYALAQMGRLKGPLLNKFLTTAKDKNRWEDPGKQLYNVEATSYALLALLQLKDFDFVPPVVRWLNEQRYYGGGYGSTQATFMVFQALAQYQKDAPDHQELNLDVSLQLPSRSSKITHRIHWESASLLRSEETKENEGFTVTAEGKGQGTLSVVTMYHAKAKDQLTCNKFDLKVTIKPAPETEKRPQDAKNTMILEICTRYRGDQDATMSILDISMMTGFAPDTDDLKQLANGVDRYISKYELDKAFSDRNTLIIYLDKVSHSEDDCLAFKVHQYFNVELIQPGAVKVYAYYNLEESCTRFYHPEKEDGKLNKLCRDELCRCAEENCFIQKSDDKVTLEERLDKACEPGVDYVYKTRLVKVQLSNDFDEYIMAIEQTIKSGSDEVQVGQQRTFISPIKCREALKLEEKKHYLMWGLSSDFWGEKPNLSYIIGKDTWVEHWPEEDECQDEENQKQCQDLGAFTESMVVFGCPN
procedure-summary: ITC
pKd: −log10 of the molar value.
measured-attribute: pKd

[[record]]
binder = "polypeptide comprising the amino acid sequence of SEQ ID NO: 34 (designed binder) MVKVKFDATGEEKEVETSKISAVYRTGKDVLFSYDDQGKIGWGYVSEKDAPKELLDLLARAEREK"
measured_attribute = "pKd"
obs_value = 8.89

[[record]]
binder = "polypeptide comprising the amino acid sequence of SEQ ID NO: 33 (designed binder) MVKVKFAATGEEKEVETSKIANVYRVGKDVLFSYDDQGKIGWGYVSEKDAPKELLDLLARAEREK"
measured_attribute = "pKd"
obs_value = 8.72

